Experiment: Stability in aqueous media (FaSSIF, SGF, PBS)
Format: physicochemical
Details: PBS pH 7.4, 37° C., 24 h
// boundary case: PBS (pH 7.4) % remaining 24 h equal to 8% maps to n; strictly smaller maps to y

Examples from the recorded data:
O=C(OCOC(=O)c1ccc2c(c1)nc(OCCOCCCCNCc1cc(F)c(OC(F)(F)F)c(F)c1)c1ccncc12)OC1CCOCC1: y
COC(=O)OCOC(=O)c1ccc2c(c1)nc(OCCOCCCCNCc1cc(F)c(OC(F)(F)F)c(F)c1)c1ccncc12: n
CN(C)CCOC(=O)c1ccc2c(c1)nc(OCCOCCCCNCc1cc(F)c(OC(F)(F)F)c(F)c1)c1ccncc12: y

API: query returns whether the compound falls strictly under 8% in PBS (pH 7.4) % remaining 24 h. Query: CC(=O)OCOC(=O)c1ccc2c(c1)nc(OCCOCCCCNCc1cc(F)c(OC(F)(F)F)c(F)c1)c1ccncc12
y

API: query returns whether the compound falls strictly under 8% in PBS (pH 7.4) % remaining 24 h. Query: CCOC(=O)c1ccc2c(c1)nc(OCCOCCCCNCc1cc(F)c(OC(F)(F)F)c(F)c1)c1ccncc12
y
